System: HOP-62 NSCLC
ASSAY_NOTES: NCI-60 one-dose screen, 48 h
MEASUREMENT_CONDITIONS: 10 µM unless noted
About 83,000 compounds went through this panel and 20% of them were active in at least one assay; those are over-represented in the sample as a whole. Active and inactive are the calls of the source. How the source made its calls: active means growth percent below 10; inactive means the rest.
Classes used: TRUE (active), FALSE (inactive)

* COc1ccc2nc(NC(=O)COc3cc(/C=C\c4cc(OC)c(OC)c(OC)c4)ccc3OC)sc2c1 | FALSE
* CC[C@H](C)[C@H](NC(=O)C12CC(NC(C)=O)(C1)C2)C(=O)N(C)[C@H](C[C@@H](OC(C)=O)c1nc(C(=O)N[C@@H](Cc2ccccc2)C[C@H](C)C(=O)OC)cs1)C(C)C | FALSE
* CCCCCN(CCCCC)CC(O)c1cc(Cl)ccc1OC (stereo unspecified) | TRUE
* COC(=O)C1CCC(NC(=O)c2csc([C@@H](C[C@H](C(C)C)N(C)C(=O)[C@@H](NC(=O)[C@H]3CCCCN3C)C(C)C)OC(C)=O)n2)CC1 (stereo partly specified) | TRUE
* COc1ccc(/C=C\c2cc(OC)c(OC)c(OC)c2)cc1NC(=O)/C=C/c1ccc(OC)c(OC)c1 | FALSE
* CC(=O)ONc1ccc([N+](=O)[O-])c(C(F)(F)F)c1 | FALSE
* C/C(=C\c1cc(C(F)(F)F)nn1CCNC(=O)OC(C)(C)C)[C@@H]1C[C@@H]2O[C@]2(C)CCC[C@H](C)[C@H](O)[C@@H](C)C(=O)C(C)(C)[C@@H](O)CC(=O)O1 | FALSE
* CC(=O)O[C@H](C[C@H](C(C)C)N(C)C(=O)[C@@H](NC(=O)[C@H]1CCCCN1C)C(C)C)c1nc(C(=O)N[C@@H](Cc2ccccc2)C[C@H](C)C(=O)O)c(CCOCc2ccccc2)s1 | FALSE
* O=C1OCC2=C1C(c1ccccc1)c1cc3c(cc1N2)OCO3 (stereo unspecified) | FALSE
* CCCCCCC(=O)NC1=C(N2CC2)C(=O)C(NC(=O)CCCCCC)=C(N2CC2)C1=O | FALSE
* c1cnc2[nH]cc(-c3csc(-c4cn(CCCCN5CCCCC5)c5ccccc45)n3)c2c1 | FALSE
* COc1cccc2c1c(C(=O)c1ccco1)cn2Cc1ccc(F)cc1 | FALSE
* CC(C)(C)C(=O)OCOP(=O)(OCOC(=O)C(C)(C)C)C1CCCN(O)C1=O (stereo unspecified) | FALSE
* O=Cc1cn(Cc2ccc(Cl)cc2)c2ccccc12 | FALSE
* COC(=O)C1OC(Oc2ccc(N(CCCl)CCCl)cc2)C(OC(C)=O)C(OC(C)=O)C1OC(C)=O (stereo unspecified) | FALSE
* C[n+]1c(/C=C/c2ccc(N(CCCl)CCCl)cc2)sc2ccccc21 | FALSE
* O=C1C(N2CC2)=C(N2CC2)C(=O)C(N2CC2)=C1N1CC1 | TRUE
* CC1(C)N=C(N)N=C(N)N1c1ccc(OCCCNC(=O)Nc2ccc(S(=O)(=O)F)cc2)c(Cl)c1 | FALSE
* COc1ccc2c(c1)c(-c1nc(-c3c[nH]c4ncccc34)cs1)cn2CCN1CCOCC1 | FALSE
* CCCC[C@H](NC(=O)[C@H]1CCCN1C)C(=O)N(C)[C@H](C[C@@H](OC(C)=O)c1nc(C(=O)N[C@@H](Cc2ccccc2)C[C@H](C)C(=O)OCC)cs1)C(C)C | FALSE
* CCCCCCCCCCCCNC(c1ccccc1)C(O)c1ccccc1 (stereo unspecified) | FALSE
* CN1CC(CNC(=O)OCc2ccccc2)CC2c3cccc4c3c(cn4C)CC21 (stereo unspecified) | FALSE
* C[C@@H]1O[C@@H](O[C@H]2C[C@@H](O)[C@]3(CO)C4C(CC[C@]3(O)C2)[C@@]2(O)CC[C@H](C3=CC(=O)OC3)[C@@]2(C)C[C@H]4O)[C@H](O)[C@H](O)[C@H]1O (stereo partly specified) | TRUE
* CC(=O)O[C@H]1C(=O)[C@@]2(C)[C@H]([C@H](OC(=O)c3ccccc3)[C@]3(O)C[C@H](OC(=O)[C@H](OC(=O)OC[C@@H]4COC(C)(C)O4)[C@@H](NC(=O)c4ccccc4)c4ccccc4)C(C)=C1C3(C)C)[C@]1(OC(C)=O)CO[C@@H]1C[C@@H]2O | FALSE
* COc1ccc(/C=C\c2cc(OC)c(OC)c(OC)c2)cc1OCC(=O)Nc1nc2ccc(C(F)(F)F)cc2s1 | FALSE
* CCCCCCCCCCCCCCCCCC1OC[C@@H](COC(=O)O[C@@H](C(=O)O[C@H]2C[C@@]3(O)[C@@H](OC(=O)c4ccccc4)[C@@H]4[C@]5(OC(C)=O)CO[C@@H]5C[C@H](O)[C@@]4(C)C(=O)[C@H](OC(C)=O)C(=C2C)C3(C)C)[C@@H](NC(=O)c2ccccc2)c2ccccc2)O1 (stereo partly specified) | FALSE
* COc1ccc(Nc2ccc([N+](=O)[O-])cc2[N+](=O)[O-])cc1CN(CCCl)CCCl | FALSE
* COc1cccc(/C=C/[N+](=O)[O-])c1 | FALSE
* Cn1cc(-c2csc(-c3cn(CCCCN4CCCCC4)c4ccc(F)cc34)n2)c2cccnc21 | FALSE
* COP(=S)(N1CC1)N1CC1 | FALSE
* COC(=O)[C@@H](C)C[C@H](Cc1ccc(F)cc1)NC(=O)c1csc([C@@H](C[C@H](C(C)C)N(C)C(=O)[C@@H](NC(=O)[C@H]2CCCCN2C)C(C)C)OC(C)=O)n1 | TRUE
